Would you mind telling me the reported melting temperature of each entry?
# Tested on: HeLa Kyoto
# TEST_DETAILS: melting temperature (median over replicates), in situ; higher = more thermally stable
# CONDITION_SUMMARY: cell cycle stage: G1/S

Data request: Which measured melting temperature value corresponds to MALAARLWRLLPFRRGAAPGSRLPAGTSGSRGHCGPCRFRGFEVMGNPGTFKRGLLLSALSYLGFETYQVISQAAVVHATAKVEEILEQADYLYESGETEKLYQLLTQYKESEDAELLWRLARASRDVAQLSRTSEEEKKLLVYEALEYAKRALEKNESSFASHKWYAICLSDVGDYEGIKAKIANAYIIKEHFEKAIELNPKDATSIHLMGIWCYTFAEMPWYQRRIAKMLFATPPSSTYEKALGYFHRAEQVDPNFYSKNLLLLGKTYLKLHNKKLAAFWLMKAKDYPAHTEEDKQIQTEAAQLLTSFSEKN [RMDN1] ?
Data returned: 52 °C

Data request: Recorded melting temperature for MGEKSENCGVPEDLLNGLKVTDTQEAECAGPPVPDPKNQHSQSKLLRDDEAHLQEDQGEEECFHDCSASFEEEPGADKVENKSNEDVNSSELDEEYLIELEKNMSDEEKQKRREESTRLKEEGNEQFKKGDYIEAESSYSRALEMCPSCFQKERSILFSNRAAARMKQDKKEMAINDCSKAIQLNPSYIRAILRRAELYEKTDKLDEALEDYKSILEKDPSIHQAREACMRLPKQIEERNERLKEEMLGKLKDLGNLVLRPFGLSTENFQIKQDSSTGSYSINFVQNPNNNR [TTC1] , please?
Data returned: 56.2 °C

Data request: Data request, read-out melting temperature, for MAVELGVLLVRPRPGTGLGRVMRTLLLVLWLATRGSALYFHIGETEKKCFIEEIPDETMVIGNYRTQLYDKQREEYQPATPGLGMFVEVKDPEDKVILARQYGSEGRFTFTSHTPGEHQICLHSNSTKFSLFAGGMLRVHLDIQVGEHANDYAEIAAKDKLSELQLRVRQLVEQVEQIQKEQNYQRWREERFRQTSESTNQRVLWWSILQTLILVAIGVWQMRHLKSFFEAKKLV [TMED9]
Data returned: 55.7 °C

* * *

# System: HeLa Kyoto
# TEST_DETAILS: solubility change mitosis vs G1/S (difference of NP-40 vs SDS log2 ratios) (log2 ratio difference); higher = more soluble in mitosis
ASSAY_METRIC: solubility change mitosis (log2)
Respond with the number and no other words.

Data request: Fill in: solubility change mitosis (log2) of MAQRYDDLPHYGGMDGVGIPSTMYGDPHAARSMQPVHHLNHGPPLHSHQYPHTAHTNAMAPSMGSSVNDALKRDKDAIYGHPLFPLLALIFEKCELATCTPREPGVAGGDVCSSESFNEDIAVFAKQIRAEKPLFSSNPELDNLMIQAIQVLRFHLLELEKVHELCDNFCHRYISCLKGKMPIDLVIDDREGGSKSDSEDITRSANLTDQPSWNRDHDDTASTRSGGTPGPSSGGHTSHSGDNSSEQGDGLDNSVASPSTGDDDDPDKDKKRHKKRGIFPKVATNIMRAWLFQHLTHPYPSEEQKKQLAQDTGLTILQVNNWFINARRRIVQPMIDQSNRAVSQGTPYNPDGQPMGGFVMDGQQHMGIRAPGPMSGMGMNMGMEGQWHYM [MEIS1] is ___
Data returned: -0.208

* * *

# Test system: HeLa Kyoto
# TEST_DETAILS: melting temperature (median over replicates), in situ; higher = more thermally stable
# CONDITION_SUMMARY: cell cycle stage: G1/S
ASSAY_METRIC: melting temperature (°C)
Give just the numeric value; °C need not be written.

Data request: What measured melting temperature goes with MAGLPRRIIKETQRLLAEPVPGIKAEPDESNARYFHVVIAGPQDSPFEGGTFKLELFLPEEYPMAAPKVRFMTKIYHPNVDKLGRICLDILKDKWSPALQIRTVLLSIQALLSAPNPDDPLANDVAEQWKTNEAQAIETARAWTRLYAMNNI [UBE2N] ?
Data returned: 52.1

Data request: // query melting temperature value for entry MDDREDLVYQAKLAEQAERYDEMVESMKKVAGMDVELTVEERNLLSVAYKNVIGARRASWRIISSIEQKEENKGGEDKLKMIREYRQMVETELKLICCDILDVLDKHLIPAANTGESKVFYYKMKGDYHRYLAEFATGNDRKEAAENSLVAYKAASDIAMTELPPTHPIRLGLALNFSVFYYEILNSPDRACRLAKAAFDDAIAELDTLSEESYKDSTLIMQLLRDNLTLWTSDMQGDGEEQNKEALQDVEDENQ [YWHAE]
Data returned: 55.3

* * *

# Tested on: HeLa Kyoto
# TEST_DETAILS: solubility change mitosis vs G1/S (difference of NP-40 vs SDS log2 ratios) (log2 ratio difference); higher = more soluble in mitosis
ASSAY_METRIC: solubility change mitosis (log2)
Note: the reply should be a number with no unit written.

Data request: What solubility change mitosis (log2) value was documented for this sequence, MAPPAGGAAAAASDLGSAAVLLAVHAAVRPLGAGPDAEAQLRRLQLSADPERPGRFRLELLGAGPGAVNLEWPLESVSYTIRGPTQHELQPPPGGPGTLSLHFLNPQEAQRWAVLVRGATVEGQNGSKSNSPPALGPEACPVSLPSPPEASTLKGPPPEADLPRSPGNLTEREELAGSLARAIAGGDEKGAAQVAAVLAQHRVALSVQLQEACFPPGPIRLQVTLEDAASAASAASSAHVALQVHPHCTVAALQEQVFSELGFPPAVQRWVIGRCLCVPERSLASYGVRQDGDPAFLYLLSAPREAPATGPSPQHPQKMDGELGRLFPPSLGLPPGPQPAASSLPSPLQPSWSCPSCTFINAPDRPGCEMCSTQRPCTWDPLAAAST [SHARPIN] ?
Data returned: -0.0725

* * *

# Test system: HeLa Kyoto
# TEST_DETAILS: thermal stability score vs G1/S (z-score of summed log2 fold changes over temperatures); higher = more thermally stable than in G1/S
# CONDITION_SUMMARY: cell cycle stage: mitosis
ASSAY_METRIC: thermal stability score
Reply with the value as a number alone.

Data request: # query: thermal stability score of entry MASSSGSKAEFIVGGKYKLVRKIGSGSFGDIYLAINITNGEEVAVKLESQKARHPQLLYESKLYKILQGGVGIPHIRWYGQEKDYNVLVMDLLGPSLEDLFNFCSRRFTMKTVLMLADQMISRIEYVHTKNFIHRDIKPDNFLMGIGRHCNKLFLIDFGLAKKYRDNRTRQHIPYREDKNLTGTARYASINAHLGIEQSRRDDMESLGYVLMYFNRTSLPWQGLKAATKKQKYEKISEKKMSTPVEVLCKGFPAEFAMYLNYCRGLRFEEAPDYMYLRQLFRILFRTLNHQYDYTFDWTMLKQKAAQQAASSSGQGQQAQTPTGKQTDKTKSNMKGF [CSNK1A1]
Data returned: 1.69

* * *

# Tested on: HeLa Kyoto
# TEST_DETAILS: melting temperature (median over replicates), in situ; higher = more thermally stable
# CONDITION_SUMMARY: cell cycle stage: mitosis
ASSAY_METRIC: melting temperature (°C)
Reply numerically in °C, unit not repeated.

Data request: Could you tell me which melting temperature is on file for MAAAAELSLLEKSLGLSKGNKYSAQGERQIPVLQTNNGPSLTGLTTIAAHLVKQANKEYLLGSTAEEKAIVQQWLEYRVTQVDGHSSKNDIHTLLKDLNSYLEDKVYLTGYNFTLADILLYYGLHRFIVDLTVQEKEKYLNVSRWFCHIQHYPGIRQHLSSVVFIKNRLYTNSH [EEF1E1] ?
Data returned: 49.7

Data request: // returns reported melting temperature for input MLGFITRPPHRFLSLLCPGLRIPQLSVLCAQPRPRAMAISSSSCELPLVAVCQVTSTPDKQQNFKTCAELVREAARLGACLAFLPEAFDFIARDPAETLHLSEPLGGKLLEEYTQLARECGLWLSLGGFHERGQDWEQTQKIYNCHVLLNSKGAVVATYRKTHLCDVEIPGQGPMCESNSTMPGPSLESPVSTPAGKIGLAVCYDMRFPELSLALAQAGAEILTYPSAFGSITGPAHWEVLLRARAIETQCYVVAAAQCGRHHEKRASYGHSMVVDPWGTVVARCSEGPGLCLARIDLNYLRQLRRHLPVFQHRRPDLYGNLGHPLS [NIT1]
Data returned: 55.1

Data request: Look at this sequence and give its reported melting temperature. MQAALEVTARYCGRELEQYGQCVAAKPESWQRDCHYLKMSIAQCTSSHPIIRQIRQACAQPFEAFEECLRQNEAAVGNCAEHMRRFLQCAEQVQPPRSPATVEAQPLPAS [CHCHD5]
Data returned: 50.5

Data request: Which melting temperature value belongs to MGNSALRAHVETAQKTGVFQLKDRGLTEFPADLQKLTSNLRTIDLSNNKIESLPPLLIGKFTLLKSLSLNNNKLTVLPDEICNLKKLETLSLNNNHLRELPSTFGQLSALKTLSLSGNQLGALPPQLCSLRHLDVMDLSKNQIRSIPDSVGELQVIELNLNQNQISQISVKISCCPRLKILRLEENCLELSMLPQSILSDSQICLLAVEGNLFEIKKLRELEGYDKYMERFTATKKKFA [LRRC57] ?
Data returned: 53.6

Data request: Param item = MAMLVLVPGRVMRPLGGQLWRFLPRGLEFWGPAEGTARVLLRQFCARQAEAWRASGRPGYCLGTRPLSTARPPPPWSQKGPGDSTRPSKPGPVSWKSLAITFAIGGALLAGMKHVKKEKAEKLEKERQRHIGKPLLGGPFSLTTHTGERKTDKDYLGQWLLIYFGFTHCPDVCPEELEKMIQVVDEIDSITTLPDLTPLFISIDPERDTKEAIANYVKEFSPKLVGLTGTREEVDQVARAYRVYYSPGPKDEDEDYIVDHTIIMYLIGPDGEFLDYFGQNKRKGEIAASIATHMRPYRKKS [SCO1] ; retrieve measured melting temperature.
Data returned: 51.2

Data request: Given the entry MTPLCPRPALCYHFLTSLLRSAMQNARGARQRAEAAVLSGPGPPLGRAAQHGIPRPLSSAGRLSQGCRGASTVGAAGWKGELPKAGGSPAPGPETPAISPSKRARPAEVGGMQLRFARLSEHATAPTRGSARAAGYDLYSAYDYTIPPMEKAVVKTDIQIALPSGCYGRVAPRSGLAAKHFIDVGAGVIDEDYRGNVGVVLFNFGKEKFEVKKGDRIAQLICERIFYPEIEEVQALDDTERGSGGFGSTGKN [DUT] , report its measured melting temperature.
Data returned: 53.5

Data request: Item under review: MENHKSNNKENITIVDISRKINQLPEAERNLLENGSVYVGLNAALCGLIANSLFRRILNVTKARIAAGLPMAGIPFLTTDLTYRCFVSFPLNTGDLDCETCTITRSGLTGLVIGGLYPVFLAIPVNGGLAARYQSALLPHKGNILSYWIRTSKPVFRKMLFPILLQTMFSAYLGSEQYKLLIKALQLSEPGKEIH [TMEM126A] . Reported melting temperature?
Data returned: 52.4

Data request: I am curious: what melting temperature value has been reported for MAAGIVASRRLRDLLTRRLTGSNYPGLSISLRLTGSSAQEEASGVALGEAPDHSYESLRVTSAQKHVLHVQLNRPNKRNAMNKVFWREMVECFNKISRDADCRAVVISGAGKMFTAGIDLMDMASDILQPKGDDVARISWYLRDIITRYQETFNVIERCPKPVIAAVHGGCIGGGVDLVTACDIRYCAQDAFFQVKEVDVGLAADVGTLQRLPKVIGNQSLVNELAFTARKMMADEALGSGLVSRVFPDKEVMLDAALALAAEISSKSPVAVQSTKVNLLYSRDHSVAESLNYVASWNMSMLQTQDLVKSVQATTENKELKTVTFSKL [ECH1] ?
Data returned: 53.5

Data request: If you can, please state the reported melting temperature value of MSEVKSRKKSGPKGAPAAEPGKRSEGGKTPVARSSGGGGWADPRTCLSLLSLGTCLGLAWFVFQQSEKFAKVENQYQLLKLETNEFQQLQSKISLISEKWQKSEAIMEQLKSFQIIAHLKRLQEEINEVKTWSNRITEKQDILNNSLTTLSQDITKVDQSTTSMAKDVGLKITSVKTDIRRISGLVTDVISLTDSVQELENKIEKVEKNTVKNIGDLLSSSIDRTATLRKTASENSQRINSVKKTLTELKSDFDKHTDRFLSLEGDRAKVLKTVTFANDLKPKVYNLKKDFSRLEPLVNDLTLRIGRLVTDLLQREKEIAFLSEKISNLTIVQAEIKDIKDEIAHISDMN [IKBIP] .
Data returned: 55.2

Data request: Reported melting temperature for MALQGISVVELSGLAPGPFCAMVLADFGARVVRVDRPGSRYDVSRLGRGKRSLVLDLKQPRGAAVLRRLCKRSDVLLEPFRRGVMEKLQLGPEILQRENPRLIYARLSGFGQSGSFCRLAGHDINYLALSGVLSKIGRSGENPYAPLNLLADFAGGGLMCALGIIMALFDRTRTGKGQVIDANMVEGTAYLSSFLWKTQKLSLWEAPRGQNMLDGGAPFYTTYRTADGEFMAVGAIEPQFYELLIKGLGLKSDELPNQMSMDDWPEMKKKFADVFAEKTKAEWCQIFDGTDACVTPVLTFEEVVHHDHNKERGSFITSEEQDVSPRPAPLLLNTPAIPSFKRDPFIGEHTEEILEEFGFSREEIYQLNSDKIIESNKVKASL [AMACR] : what is it?
Data returned: 52.5

Data request: Record request: melting temperature value, item MKFLLDILLLLPLLIVCSLESFVKLFIPKRRKSVTGEIVLITGAGHGIGRLTAYEFAKLKSKLVLWDINKHGLEETAAKCKGLGAKVHTFVVDCSNREDIYSSAKKVKAEIGDVSILVNNAGVVYTSDLFATQDPQIEKTFEVNVLAHFWTTKAFLPAMTKNNHGHIVTVASAAGHVSVPFLLAYCSSKFAAVGFHKTLTDELAALQITGVKTTCLCPNFVNTGFIKNPSTSLGPTLEPEEVVNRLMHGILTEQKMIFIPSSIAFLTTLERILPERFLAVLKRKISVKFDAVIGYKMKAQ [HSD17B11]
Data returned: 54.8
